Experiment: AUCinfinity in C57BL/6 mouse at 10 mg/kg, po or 1 mg/kg, iv by HPLC analysis
Assay type: ADME, organism-based
Design: dose 10 mg/kg, route po
Conditions: in vivo
Measured endpoint: AUC(0-inf) (ng·h/mL)
Provide the reading as a plain figure in ng·h/mL.

Fill blank: measured AUC(0-inf) of the compound OC[C@H]1O[C@H](Sc2cc(Cl)c(F)c(Cl)c2)[C@H](O)[C@@H](n2cc(-c3nccs3)nn2)[C@H]1O is ____.
3200

###

Answer each item with its documented fraction unbound at 5 h, 2 µM.
Assay: Protein binding in mouse plasma assessed as unbound fraction at 2 uM incubated for 5 hrs by equilibrium dialysis based LC-MS/MS analysis
Assay type: ADME, cell-free
Kindly provide the number alone.

Fill blank: measured fraction unbound at 5 h, 2 µM of the compound OC[C@H]1O[C@H](Sc2cc(Cl)c(F)c(Cl)c2)[C@H](O)[C@@H](n2cc(-c3cscn3)nn2)[C@H]1O is ____.
0.015

Fill blank: measured fraction unbound at 5 h, 2 µM of the compound OC[C@H]1O[C@H](Sc2cc(Cl)c(F)c(Cl)c2)[C@H](O)[C@@H](n2cc(-c3nccs3)nn2)[C@H]1O is ____.
0.013

Fill blank: measured fraction unbound at 5 h, 2 µM of the compound OC[C@H]1O[C@H](Sc2ccc(Cl)c(Cl)c2)[C@H](O)[C@@H](n2cc(-c3ccsc3)nn2)[C@H]1O is ____.
0.015

Fill blank: measured fraction unbound at 5 h, 2 µM of the compound OC[C@H]1O[C@H](Sc2ccc(Cl)c(Cl)c2)[C@H](O)[C@@H](n2cc(-c3cscn3)nn2)[C@H]1O is ____.
0.033

###

Answer each item with its documented Papp B→A at 1.5 h, 10 µM.
Test: Apparent permeability from basolateral to apical side in human Caco-2 cells at 10 uM incubated for 90 mins by LC-MS/MS analysis
Assay type: ADME, cell-based

Fill blank: measured Papp B→A at 1.5 h, 10 µM of the molecule OC[C@H]1O[C@H](Sc2ccc(Cl)c(Cl)c2)[C@H](O)[C@@H](n2cc(-c3cscn3)nn2)[C@H]1O is ____.
50 ×10⁻⁶ cm/s

Fill blank: measured Papp B→A at 1.5 h, 10 µM of the molecule OC[C@H]1O[C@H](Sc2cc(Cl)c(F)c(Cl)c2)[C@H](O)[C@@H](n2cc(-c3nccs3)nn2)[C@H]1O is ____.
31 ×10⁻⁶ cm/s

Fill blank: measured Papp B→A at 1.5 h, 10 µM of the molecule OC[C@H]1O[C@H](Sc2ccc(Cl)c(Cl)c2)[C@H](O)[C@@H](n2cc(-c3ncc[nH]3)nn2)[C@H]1O is ____.
25 ×10⁻⁶ cm/s

###

Experiment: Lipophilicity, logD of compound at pH 7.4 preincubated with octanol for 5 mins followed by phosphate buffer addition and measured after 1 hrs by shakeflask method based LC-MS/MS analysis
Assay type: physicochemical
Settings: time 65 min
We use 3 as the dividing line for logD at 1 h: on or above the line is t, below is f.

Reported logD at 1 h reaches at least 3 for OC[C@H]1O[C@H](Sc2ccc(Cl)c(Cl)c2)[C@H](O)[C@@H](n2cc(-c3ncc[nH]3)nn2)[C@H]1O ?
f

Reported logD at 1 h reaches at least 3 for OC[C@H]1O[C@H](Sc2cc(Cl)c(F)c(Cl)c2)[C@H](O)[C@@H](n2cc(-c3cscn3)nn2)[C@H]1O ?
f

Reported logD at 1 h reaches at least 3 for OC[C@H]1O[C@H](Sc2ccc(Cl)c(Cl)c2)[C@H](O)[C@@H](n2cc(-c3ccsc3)nn2)[C@H]1O ?
t

Reported logD at 1 h reaches at least 3 for OC[C@H]1O[C@H](Sc2ccc(Cl)c(Cl)c2)[C@H](O)[C@@H](n2cc(-c3cscn3)nn2)[C@H]1O ?
t

Reported logD at 1 h reaches at least 3 for OC[C@H]1O[C@H](Sc2cc(Cl)c(F)c(Cl)c2)[C@H](O)[C@@H](n2cc(-c3nccs3)nn2)[C@H]1O ?
t

Reported logD at 1 h reaches at least 3 for OC[C@H]1O[C@H](Sc2cncc(Br)c2)[C@H](O)[C@@H](n2cc(-c3ccsc3)nn2)[C@H]1O ?
f

###

Experiment: Metabolic stability in mouse hepatocytes assessed as intrinsic clearance measured per 10^6 cells at 2 uM incubated for 15 to 120 mins by LC-MS/MS analysis
Format: ADME, cell-based, Hepatocyte
Conditions: time 15-120 min, read-out: CLH
Measured endpoint: hepatocyte CLint at 2 µM

Fill blank: measured hepatocyte CLint at 2 µM of the molecule OC[C@H]1O[C@H](Sc2cc(Cl)c(F)c(Cl)c2)[C@H](O)[C@@H](n2cc(-c3cscn3)nn2)[C@H]1O is ____.
< 1.5 µL/min/1e6 cells

Fill blank: measured hepatocyte CLint at 2 µM of the molecule OC[C@H]1O[C@H](Sc2ccc(Cl)c(Cl)c2)[C@H](O)[C@@H](n2cc(-c3cscn3)nn2)[C@H]1O is ____.
< 1.5 µL/min/1e6 cells

Fill blank: measured hepatocyte CLint at 2 µM of the molecule OC[C@H]1O[C@H](Sc2ccc(Cl)c(Cl)c2)[C@H](O)[C@@H](n2cc(-c3ccsc3)nn2)[C@H]1O is ____.
15 µL/min/1e6 cells

Fill blank: measured hepatocyte CLint at 2 µM of the molecule OC[C@H]1O[C@H](Sc2cc(Cl)c(F)c(Cl)c2)[C@H](O)[C@@H](n2cc(-c3nccs3)nn2)[C@H]1O is ____.
< 1.5 µL/min/1e6 cells

###

Target: Galectin-3 (Mus musculus)
Sequence (P16110 whole entry): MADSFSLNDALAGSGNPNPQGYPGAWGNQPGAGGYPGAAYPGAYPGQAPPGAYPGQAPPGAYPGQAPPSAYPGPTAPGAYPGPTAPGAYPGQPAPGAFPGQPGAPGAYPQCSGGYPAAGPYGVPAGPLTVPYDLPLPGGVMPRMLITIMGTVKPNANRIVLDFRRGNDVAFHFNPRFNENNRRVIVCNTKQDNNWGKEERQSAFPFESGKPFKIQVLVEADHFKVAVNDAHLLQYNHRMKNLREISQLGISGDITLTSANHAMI
Assay: Binding affinity to mouse Galectin-3 assessed as dissociation constant by fluorescence polarization assay
Measured endpoint: pKd
Scale: negative log10 of molar concentration, which is what pKd denotes.

Fill blank: measured pKd of the compound OC[C@H]1O[C@H](Sc2cc(Cl)c(F)c(Cl)c2)[C@H](O)[C@@H](n2cc(-c3nccs3)nn2)[C@H]1O is ____.
5.24

###

Biological target: Galectin-8 (Homo sapiens, UniProt O00214)
Sequence (O00214 whole entry): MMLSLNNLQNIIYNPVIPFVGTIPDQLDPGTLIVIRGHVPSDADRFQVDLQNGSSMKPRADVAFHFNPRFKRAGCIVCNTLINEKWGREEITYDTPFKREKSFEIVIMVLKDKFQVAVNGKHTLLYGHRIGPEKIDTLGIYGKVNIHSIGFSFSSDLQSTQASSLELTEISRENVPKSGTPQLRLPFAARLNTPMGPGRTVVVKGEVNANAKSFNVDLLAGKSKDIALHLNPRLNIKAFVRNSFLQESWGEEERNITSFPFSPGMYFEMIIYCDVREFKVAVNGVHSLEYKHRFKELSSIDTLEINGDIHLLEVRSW
Assay: Binding affinity to C-terminal human Galectin-8 assessed as dissociation constant by fluorescence polarization assay
Measured endpoint: Kd (µM)
Provide the reading as a plain figure in µM.

Fill blank: measured Kd of the compound OC[C@H]1O[C@H](Sc2cc(Cl)c(F)c(Cl)c2)[C@H](O)[C@@H](n2cc(-c3nccs3)nn2)[C@H]1O is ____.
130

###

Assay: Protein binding in human plasma assessed as unbound fraction at 2 uM incubated for 5 hrs by equilibrium dialysis based LC-MS/MS analysis
Assay type: ADME, cell-free
Answer each item with its documented fraction unbound at 5 h, 2 µM.
Kindly provide the number alone.

Fill blank: measured fraction unbound at 5 h, 2 µM of the molecule OC[C@H]1O[C@H](Sc2cc(Cl)c(F)c(Cl)c2)[C@H](O)[C@@H](n2cc(-c3cscn3)nn2)[C@H]1O is ____.
0.033

Fill blank: measured fraction unbound at 5 h, 2 µM of the molecule OC[C@H]1O[C@H](Sc2cc(Cl)c(F)c(Cl)c2)[C@H](O)[C@@H](n2cc(-c3nccs3)nn2)[C@H]1O is ____.
0.038

Fill blank: measured fraction unbound at 5 h, 2 µM of the molecule OC[C@H]1O[C@H](Sc2ccc(Cl)c(Cl)c2)[C@H](O)[C@@H](n2cc(-c3ccsc3)nn2)[C@H]1O is ____.
0.014

Fill blank: measured fraction unbound at 5 h, 2 µM of the molecule OC[C@H]1O[C@H](Sc2ccc(Cl)c(Cl)c2)[C@H](O)[C@@H](n2cc(-c3cscn3)nn2)[C@H]1O is ____.
0.068

###

Experiment: Oral bioavailability in C57BL/6 mouse at 10 mg/kg measured upto 24 hrs by HPLC analysis
Format: ADME, organism-based
Details: in vivo
Measured endpoint: bioavailability

Fill blank: measured bioavailability of the molecule OC[C@H]1O[C@H](Sc2cc(Cl)c(F)c(Cl)c2)[C@H](O)[C@@H](n2cc(-c3nccs3)nn2)[C@H]1O is ____.
> 99%

###

Test: Volume of distribution at steady state in C57BL/6 mouse at 1 mg/kg, iv measured upto 8 hrs by HPLC analysis
Type: ADME, organism-based
Conditions: in vivo, read-out: Vdss
Measured endpoint: Vd
Just the number plus its unit, please.

Fill blank: measured Vd of the compound OC[C@H]1O[C@H](Sc2cc(Cl)c(F)c(Cl)c2)[C@H](O)[C@@H](n2cc(-c3nccs3)nn2)[C@H]1O is ____.
0.4 L/kg

###

Assay: Apparent permeability from apical to basolateral side in human Caco-2 cells at 10 uM incubated for 90 mins by LC-MS/MS analysis
Assay type: ADME, cell-based
We use 9 ×10⁻⁶ cm/s as the dividing line for Papp A→B at 1.5 h, 10 µM: on or above the line is yes (1), below is no (0).

Reported Papp A→B at 1.5 h, 10 µM reaches at least 9 ×10⁻⁶ cm/s for OC[C@H]1O[C@H](Sc2ccc(Cl)c(Cl)c2)[C@H](O)[C@@H](n2cc(-c3cc(F)c(F)c(F)c3)nn2)[C@H]1O ?
yes (1)

Reported Papp A→B at 1.5 h, 10 µM reaches at least 9 ×10⁻⁶ cm/s for OC[C@H]1O[C@H](Sc2ccc(Cl)c(Cl)c2)[C@H](O)[C@@H](n2cc(-c3ncc[nH]3)nn2)[C@H]1O ?
no (0)

Reported Papp A→B at 1.5 h, 10 µM reaches at least 9 ×10⁻⁶ cm/s for OC[C@H]1O[C@H](Sc2cncc(Br)c2)[C@H](O)[C@@H](n2cc(-c3ccsc3)nn2)[C@H]1O ?
no (0)

Reported Papp A→B at 1.5 h, 10 µM reaches at least 9 ×10⁻⁶ cm/s for OC[C@H]1O[C@H](Sc2cc(Cl)c(F)c(Cl)c2)[C@H](O)[C@@H](n2cc(-c3nccs3)nn2)[C@H]1O ?
yes (1)

Reported Papp A→B at 1.5 h, 10 µM reaches at least 9 ×10⁻⁶ cm/s for OC[C@H]1O[C@H](Sc2ccc(Cl)c(Cl)c2)[C@H](O)[C@@H](n2cc(-c3ccsc3)nn2)[C@H]1O ?
yes (1)

Reported Papp A→B at 1.5 h, 10 µM reaches at least 9 ×10⁻⁶ cm/s for OC[C@H]1O[C@H](Sc2ccc(Cl)c(Cl)c2)[C@H](O)[C@@H](n2cc(-c3cscn3)nn2)[C@H]1O ?
no (0)
